Measured Inhibition % of individual entries
target: Parkinson's disease protein 7 (PARK7/DJ1) (human, UniProt Q99497); experiment: primary screen, percent inhibition; higher = more effect of the substance; conditions: 100 µM
Sequence (Q99497 whole entry, looked up): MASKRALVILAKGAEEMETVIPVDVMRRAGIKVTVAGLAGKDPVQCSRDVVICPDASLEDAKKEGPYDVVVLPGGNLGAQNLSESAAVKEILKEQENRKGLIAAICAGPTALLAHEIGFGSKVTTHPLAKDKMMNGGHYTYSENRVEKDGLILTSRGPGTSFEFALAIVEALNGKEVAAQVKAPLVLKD
About 400 (5.1%) of roughly 7,900 compounds showed an effect of 50% or more. The entries come from a sample that favours strong results as a whole.
Give the number; % is assumed, so skip it.

Consider the following illustrative entries.
O=C(CCl)N1c2ccccc2Sc2ccccc21 : 1.08
Cc1nc(S)c(C#N)c(C)c1C : 3.15
Cc1ccnc(NS(=O)(=O)c2ccc(S(=O)(=O)F)cc2)n1 : 36.3
Cc1cc(C(=O)Cn2cnc(C#N)n2)c(C)[nH]1 : 7.96
O=C(CCl)C1CCCCO1 (stereo not shown) : 94.5
C=C(Cl)CSc1nc2ccsc2c(=O)n1C : 13.1

Task: What value of Inhibition % on Parkinson's disease protein 7 (PARK7/DJ1) (human, UniProt Q99497) does "COC(=O)c1cc([N+](=O)[O-])cc(B2OC(C)(C)C(C)(C)O2)c1C" have?
Output: 12.9

Task: Next compound up: "O=C(CCl)N1c2ccccc2CCc2ccccc21"
Output: 61

Task: What about this compound? CC1CC(N2CC=C(c3ccc(F)cc3)CC2)C(=O)O1 (stereo not shown)
Output: 5.18

Task: Please answer likewise for "Cc1cc(C(=O)CCl)c(C)n1-c1nccs1"
Output: 4.37

Task: What would you report for "O=C1CCC(CC(=O)Nc2cccc(S(=O)(=O)F)c2)CC1" ?
Output: 98.3

Task: What do you have for "C=CC(=O)NCc1cccnc1N1CCOCC1" ?
Output: 4.99

====

Inhibition % values for the compounds below.
target: Parkinson's disease protein 7 (PARK7/DJ1) (human); assay: primary screen, percent inhibition; higher = more effect of the substance; conditions: 100 µM
Among all 7,900 compounds or so, about 400 (5.1%) showed an effect of 50% or more. This excerpt belongs to a sample that is enriched for strong results.
Answer with a number only, understood to be in %.

CC1CN(C(=O)C=Cc2ccnn2C)CC(C)N1.Cl (centres unmarked) : 14.8

Task: Inhibition % of "CC(=O)NCCc1ccc(C(=O)CCl)cc1F" on Parkinson's disease protein 7 (PARK7/DJ1) (human)?
Output: 81.3

Task: Next record, please: C=CC(=O)NC1CC(C(C)(C)C)C1 (centres unmarked)
Output: 14

Task: What would you report for "CSc1cc(C(=O)CCl)ccc1NC(C)=O" ?
Output: 5.59

====

target: Parkinson's disease protein 7 (PARK7/DJ1) (human); assay: primary screen, percent inhibition; read as competition with a fluorescent probe by fluorescence polarization; higher = more effect of the substance; settings: 100 µM
Among all 7,900 compounds or so, about 400 (5.1%) showed an effect of 50% or more. Many of the other results were omitted from the sample, so strong results are more common in it than they were.
Reported values of Inhibition % for individual entries
Give the number; % is assumed, so skip it.

O=C(CCl)Nc1ccc(N2CCCC2=O)cc1 : 9.28
NCC1CCCCN1C(=O)C=Cc1ccccn1 (stereo not drawn) : 1.06

Task: Tell me the measured Inhibition % of "O=C(CCl)Nc1ccc2c(c1)oc1ccccc12" , please.
Output: 62.9

Task: Repeat with "O=C(CCl)Nc1ccc(Cl)c(Cl)c1"
Output: 63

Task: Field entry: "O=C1COc2ccc(C(=O)CCl)cc2N1"
Output: 8.16

Task: Here is the next compound: "O=C(CCl)Nc1ccc(N2CCCCC2)nc1"
Output: 88.9

Task: Now this one: "C=CC(=O)N1CCN(c2ncnc3sc(C)cc23)CC1"
Output: 0.554

Task: Same thing, different compound: "N#Cc1ccnc(S)c1"
Output: 67

Task: Next: "Cl.O=C(CCl)Nc1ccc(N2CCCCC2)cc1"
Output: 89.3

Task: Also need C=CC(=O)N1CC(C(C)C)c2ccccc21 (stereo not drawn) , thanks.
Output: 5.57

Task: Next record, please: "COc1cc2c(cc1NC(=O)CCl)oc1ccccc12"
Output: 4.67

Task: Try the compound "N#Cc1ncccc1Cl"
Output: 0.27

Where do these numbers come from? They come from paper PMC9574860.
